The compounds below have reported IC50 for Mtb LeuRS (Mycobacterium tuberculosis).
Give bare numbers, in µM.

As a guide, the following entries are already answered.
[[record]]
compound = "C[C@]1(CO)COc2ccc(Br)c3c2B(OC3CN)O1 (stereo partly drawn)"
display_unit = "µM"
reported_measurement = 1.97

[[record]]
compound = "Cl.NC[C@H]1OB2OCCOc3ccc(Cl)c1c32 [Example 4, hydrochloride]"
display_unit = "µM"
reported_measurement = 0.148


Here's the next entry for you.
Read off the recorded IC50 for CC1(C)COc2c(Cl)ccc3c2B(O[C@@H]3CN)O1 [Example C13-Cl, reference compound]
2.16

====

Tested on: M. tuberculosis standard strain Mtb H37Rv
Test: MIC determination against mycobacteria (resazurin, Middlebrook 7H9)
Type: cell-based, Mycobacterium tuberculosis
Details: Mycobacterium tuberculosis, H37RV; read-out: Mtb H37Rv MIC (B)
measured_endpoint: MIC
Don't forget the unit after the value.

As a guide, the following entries are already answered.
[[record]]
molecule = "c1cc2c3c(c1)OCCOB3OC2 [Example C1-H, reference compound]"
measured_endpoint = "MIC"
reported_measurement = "31 µM"

[[record]]
molecule = "CCOc1ccc(Cl)c2c1B(O)O[C@@H]2CN [Example C6-Cl, reference compound]"
measured_endpoint = "MIC"
reported_measurement = "0.1 µM"

[[record]]
molecule = "CCOc1ccc(Br)c2c1B(O)O[C@@H]2CN [Example C4-Br, reference compound]"
measured_endpoint = "MIC"
reported_measurement = "0.1 µM"

[[record]]
molecule = "CCOc1cccc2c1B(O)O[C@@H]2CN [Example C5-H, reference compound]"
measured_endpoint = "MIC"
reported_measurement = "0.6 µM"


Here's the next entry for you.
Under M. tuberculosis standard strain Mtb H37Rv: report MIC of NCCOc1cccc2c1B(O)OC2 [Example C3-H, reference compound] .
62 µM
